EXPERIMENTAL_SYSTEM: T1, human SIRPA_V1 protein (human, UniProt P78324 31-504)
T1 construct: Expressed on 293α cells from pcDNA3.2 V5-DEST or pFLAG V5-DEST (FLAG-tagged) vectors; also called human SIRPA Variant 1; hSIRPA V1
T1 sequence (P78324 31-504 limits assumed): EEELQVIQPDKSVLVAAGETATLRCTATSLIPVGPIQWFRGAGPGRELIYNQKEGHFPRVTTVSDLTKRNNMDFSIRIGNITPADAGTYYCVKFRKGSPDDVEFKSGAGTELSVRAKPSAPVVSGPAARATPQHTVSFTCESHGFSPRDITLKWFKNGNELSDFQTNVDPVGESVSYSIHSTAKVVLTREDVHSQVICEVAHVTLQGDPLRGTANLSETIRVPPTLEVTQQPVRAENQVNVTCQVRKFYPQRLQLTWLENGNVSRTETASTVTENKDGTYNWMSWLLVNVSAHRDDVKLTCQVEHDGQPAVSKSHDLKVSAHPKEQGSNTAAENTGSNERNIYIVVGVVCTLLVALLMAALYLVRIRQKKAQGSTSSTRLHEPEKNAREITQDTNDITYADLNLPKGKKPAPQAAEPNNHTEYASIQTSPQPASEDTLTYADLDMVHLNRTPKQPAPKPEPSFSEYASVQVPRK
EXPERIMENTAL_PROTOCOL: blocking cell-based ELISA: peroxidase-labeled CD47-Fc (1 µg/mL) on 293α cells expressing SIRPA_V1; y axis = CD47-Fc signal relative to no antibody (100)
Can you tell me IC50 (read off the curve) for the items I'm about to list?

**Q:** Reported IC50 (read off the curve) for humanized anti-SIRPA antibody hD13_H2L2 (antibody, human IgG4 S228P, kappa, F234A L235A, V domains shown, hH2 heavy chain (IgG4proFALA) and hL2 kappa light chain; also called H2L2 antibody) VH: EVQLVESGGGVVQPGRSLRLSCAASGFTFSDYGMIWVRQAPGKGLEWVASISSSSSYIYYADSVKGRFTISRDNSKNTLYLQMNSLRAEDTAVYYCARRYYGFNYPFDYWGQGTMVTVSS VL: AIQLTQSPSSLSASVGQRVTITCGASKSVRTYMHWYQQKPGKAPKLLIYSASNLEAGVPSRFSGSGSGTDFTLTISSLQPEDFATYYCQQSNEPPYTFGQGTKLEIKR : what is it?
**A:** ~0.6 µg/mL

**Q:** Reported IC50 (read off the curve) for human chimeric anti-SIRPA antibody cD13 (antibody, human IgG4 S228P, kappa, F234A L235A, V domains shown, Human IgG4proFALA heavy chain, human kappa light chain; also called cD13 (IgG4pf); human chimeric antibody D13) VH: EVQLVESGGGLVQPGRSLKLSCLASGFTFSDYGMIWVRQAPGKGLEWVASISSSSSYIYYADTVKGRFTISRENAKNTLFLHMTSLRSEDTALYYCARRYYGFNYPFDYWGQGVMVTVSS VL: DTVLTQSPALAVSLGQRVTISCGASKSVRTYMHWYQQKSGQQPKLLIYSASNLEAGVPSRFSGSGSGTDFTLTIDPVEADDIANYYCQQSNEPPYTFGAGTKLELKR : what is it?
**A:** ~0.7 µg/mL

**Q:** Reported IC50 (read off the curve) for humanized anti-SIRPA antibody hD13_H1L4 (antibody, human IgG4 S228P, kappa, F234A L235A, V domains shown, hH1 heavy chain (IgG4proFALA) and hL4 kappa light chain; also called hD13_HIL4; hD13_HIL4h) VH: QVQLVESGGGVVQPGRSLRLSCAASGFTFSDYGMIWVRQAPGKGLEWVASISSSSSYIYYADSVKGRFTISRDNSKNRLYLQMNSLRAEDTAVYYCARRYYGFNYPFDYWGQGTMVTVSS VL: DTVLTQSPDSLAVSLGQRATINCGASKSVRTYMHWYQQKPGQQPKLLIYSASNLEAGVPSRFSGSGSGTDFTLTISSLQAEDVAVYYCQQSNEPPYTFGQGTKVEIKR : what is it?
**A:** ~0.5 µg/mL
